- assay-protocol: Plasma pharmacokinetics after single dose (C1D1), LC-MS/MS
- Format: in vivo, human
- protocol-conditions: human, plasma, oral, 0.75 mg, cohort Schedule A, n = 5
- Method: At C1D1 in every dosing schedule cohort, a single dose was administered followed by 168 h (i.e., 7 days) of intensive PK sampling. Following cycle 1, the multiple-dose treatment schedules (described above) began in cycle 2. […] PK assessments were evaluated for BMS-986158 and its metabolite using plasma samples at regular intervals. Both the parent and metabolite samples were simultaneously analyzed using a validated liquid chromatography and tandem mass spectrometry assay. […]
recorded-endpoint: Cmax (ng/mL)
Expressed in ng/mL, but write only the number.

Q) Please look up its Cmax: Cc1nnn(C)c1-c1cnc2c3ccc(C(C)(C)O)cc3n([C@H](c3ccccc3)C3CCOCC3)c2c1 [BMS-986158]
A) 68.8
